# Tested on: HEK-293T
# ASSAY REMARKS: Multiplex assay against HEK293T;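 also: share of the cells with healthy nuclei that show this phenotype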
# Format: toxicity, cell-based
# RUN PARAMETERS: human, 12 h, 10 µM, compound concentration 10 uM, replicate 1
REPORTED METRIC: Population Tubulin-Different-Phenotype (%)

| COMPOUND | REPORTED VALUE |
| --- | --- |
| CC[C@H](Nc1ncnc2[nH]cnc12)c1nc2cccc(F)c2c(=O)n1-c1ccccc1 [IDELALISIB] | 2% |
| C=CC(=O)Nc1cc(-n2c(=O)ccc3cnc4ccc(-c5ccc(NS(C)(=O)=O)cc5)cc4c32)ccc1C | 63% |
| Cl.NC[C@@H]1O[C@H](C23CC4CC(CC(C4)C2)C3)Cc2c1ccc(O)c2O | 58% |
| NC(=O)c1ccc2nc(-c3ccc(C4(N)CCC4)cc3)c(-c3ccccc3)n2n1 [BAY-1125976] | 5% |
| CC[C@@H]1C(=O)N(C)c2cnc(Nc3ccc(C(=O)NC4CCN(C)CC4)cc3OC)nc2N1C1CCCC1 [BI-2536] | 90% |
| CC(C)c1cc(Nc2nc(N3CCC[C@H](N)C3)ncc2C(N)=O)cc(C(C)C)n1 | 43% |
| CCOc1ccn(-c2ccc(F)cc2)c(=O)c1C(=O)Nc1ccc(Oc2ccnc(N)c2Cl)c(F)c1 [BMS-777607] | 3% |
| c1ccc(-c2oc3ncnc(NC[C@@H]4CCCO4)c3c2-c2ccccc2)cc1 | 98% |
